assay_info: Solid phase stability experiment (XRPD, HPLC, TGA after one week)
Format: physicochemical
run_conditions: 5° C. (control), sealed, TGA
readout_name: Weight loss (%)
A number alone suffices; assume %.

Prompt: Returns the measured Weight loss (%) for the input molecule. Input: C=CC(=O)Nc1cc(Nc2ncc(F)c(-c3cnn(C)c3)n2)c(OC)cc1N1CCC(N(C)C)CC1.O=P(O)(O)O [crystal form B]
Response: 4.1

Prompt: Returns the measured Weight loss (%) for the input molecule. Input: C=CC(=O)Nc1cc(Nc2ncc(F)c(-c3cnn(C)c3)n2)c(OC)cc1N1CCC(N(C)C)CC1 [the free base of compound of formula X]
Response: 5.1

Prompt: Returns the measured Weight loss (%) for the input molecule. Input: C=CC(=O)Nc1cc(Nc2ncc(F)c(-c3cnn(C)c3)n2)c(OC)cc1N1CCC(N(C)C)CC1.O=C(O)CCCCC(=O)O [crystal form E]
Response: 0.1

Prompt: Returns the measured Weight loss (%) for the input molecule. Input: C=CC(=O)Nc1cc(Nc2ncc(F)c(-c3cnn(C)c3)n2)c(OC)cc1N1CCC(N(C)C)CC1.O=C(O)/C=C\C(=O)O [crystal form C-1]
Response: 0.1

Prompt: Returns the measured Weight loss (%) for the input molecule. Input: C=CC(=O)Nc1cc(Nc2ncc(F)c(-c3cnn(C)c3)n2)c(OC)cc1N1CCC(N(C)C)CC1.O=C(O)C[C@H](O)C(=O)O [crystal form D]
Response: 1.6

Prompt: Returns the measured Weight loss (%) for the input molecule. Input: C=CC(=O)Nc1cc(Nc2ncc(F)c(-c3cnn(C)c3)n2)c(OC)cc1N1CCC(N(C)C)CC1.Cl [crystal form A]
Response: 3.0
